- System: HIV-1 strain IIIB
- PROCEDURE_DETAILS: Retrovirucidal effect on HIV-1 strain IIIB (Table 3)
- Type: cell-based
- RECORDED_CONDITIONS: pIC50=-log IC50, IC50 in M
Returns: string. Value is Condition met if measured HIV1 pIC50 strain IIIB is below 8, and Condition not met if it is greater than or equal to it.

- CCCCN(CCCC)c1c(Cc2cc(C)cc(C)c2)c(CC)c(C)[nH]c1=O [Compound 24]: Condition met
- CCc1c(C)[nH]c(=O)c(N(CCOC)CCOC)c1Cc1cccc(C)c1 [Compound 180]: Condition met
- CCc1c(C)[nH]c(=O)c(N(C)C)c1Cc1ccccc1C [Compound 14]: Condition met
- CCc1c(C)[nH]c(=O)c(N(C)C)c1Sc1cc(C)cc(C)c1 [Compound 149]: Condition not met
- Cc1cc(C)cc(Cc2c(Cl)c[nH]c(=O)c2N)c1 [Compound 105]: Condition met
- CCc1c(C)[nH]c(=O)c(N(C)C)c1Sc1cccc(C)c1 [Compound 160]: Condition not met
- CCc1c(C)[nH]c(=O)c(N(C)C)c1Sc1cccc(Br)c1 [Compound 193]: Condition not met
- CCc1c(C)[nH]c(=O)c(N(C)C(C)C)c1Cc1cc(C)cc(C)c1 [Compound 79]: Condition met

* * *

- Test system: HIV-1 strain 103 N
- PROCEDURE_DETAILS: Retrovirucidal effect on HIV-1 strain 103 N (Table 3)
- Format: cell-based
- RECORDED_CONDITIONS: HIV-1 strain 103N (RT Lys-103 to Asn mutant); pIC50=-log IC50, IC50 in M
PARAMETER: HIV1 pIC50 strain 103N

• Cc1cc(C)cc(Cc2c(C)c(C)[nH]c(=O)c2N(C)C)c1 = 6.286
• CCc1c(C)[nH]c(=O)c(N(Cc2ccccc2)Cc2ccccc2)c1Cc1cc(C)cc(C)c1 = 4.259
• CCc1c(C)[nH]c(=O)c(N)c1Cc1cccc(C(F)(F)F)c1 = <5
• CCCN(C)c1c(Cc2cc(C)cc(C)c2)c(CC)c(C)[nH]c1=O = 6.968
• Cc1cc(C)cc(Cc2cc(CCC(C)C)[nH]c(=O)c2N)c1 = <4
• CCc1c(C)[nH]c(=O)c(N)c1Cc1cccc(C)c1 = 5.103
• Cc1cccc(Cc2c(C)c(C)[nH]c(=O)c2N(C)C)c1 = 5.936
• CCc1c(Cc2cc(C)cc(C)c2)c(N(C)C)c(=O)n(Cc2ccccc2)c1C = <4
• CCc1c(C)[nH]c(=O)c(N)c1Cc1cc(C)cc(C)c1 = 5.636

* * *

# maps each entry to its HIV1 pIC50 strain IIIB
- System: HIV-1 strain IIIB
- PROCEDURE_DETAILS: Retrovirucidal effect on HIV-1 strain IIIB (Table 3)
- Assay type: cell-based
- RECORDED_CONDITIONS: pIC50=-log IC50, IC50 in M
PARAMETER: HIV1 pIC50 strain IIIB

- CCc1c(C)[nH]c(=O)c(N(C)C)c1Cc1cc(Cl)cc(Cl)c1: 8.097
- CCc1c(C)[nH]c(=O)c(N(C)C)c1Cc1cn(C)c2ccccc12: 7.377
- CCc1c(C)[nH]c(=O)c(N(C)C)c1C(=O)c1cccs1: 7.873
- CCc1c(C)[nH]c(=O)c(NCc2cc(C)c(C)cc2OC)c1Cc1cc(C)cc(C)c1: 5.094
- Cc1cc(C)cc(Cc2cc[nH]c(=O)c2N(C)C)c1: 5.061
- CCCc1[nH]c(=O)c(N(C)C)c(Cc2cc(C)cc(C)c2)c1C: 7.029
- CCc1c(C)[nH]c(=O)c(NCc2ccccc2)c1Cc1cc(C)cc(C)c1: 6.555
- CCc1c(C)[nH]c(=O)c(N)c1C(=O)c1cc(F)cc(C(F)(F)F)c1: 5.933
- CCc1c(C)[nH]c(=O)c(N)c1Cc1ccc2c(c1)OCCO2: 4.056
- CCc1c(C)[nH]c(=O)c(N(C)C)c1Cc1c(C)cc(C)cc1C: 5.029
- CCc1c(C)[nH]c(=O)c(N(C)C)c1Cc1ccc2c(c1)OCO2: 7.721
- CCc1c(C)[nH]c(=O)c(N(C)C)c1C(=O)c1cc(C)cc(C)c1: 8.585
- CCc1c(C)[nH]c(=O)c(N(C)CC)c1Cc1cc(C)cc(C)c1: 8.194
- CCc1c(C)[nH]c(=O)c(N(C)C)c1C(=O)c1cccc(COc2ccccc2)c1: 7.421
- CCc1c(C)[nH]c(=O)c(N(C)C)c1C(O)Cc1cccc(C)c1 (stereo not drawn): 4.354
- CCc1c(C)[nH]c(=O)c(N)c1C(=O)c1ccc(OC)c(C)c1: 4.525
